Test system: Trypanosoma cruzi
test name: Antitrypanosomal activity against trypomastigotes stage of Trypanosoma cruzi infected in human HT1080 cells assessed as inhibition of parasite growth after 24 hrs by microscopic analysis
Assay type: functional, organism-based
condition info: HT-1080, 24 h
Listed next: entries and their corresponding IC50.
property measured: IC50

{"compound": "COC1=C(C(C)C)C(=O)C=C(COC(Cn2cncn2)c2ccc(F)cc2F)C1=O (stereo not given)", "property measured": "IC50", "val": "0.3 µM"}
{"compound": "COC1=C(C(C)C)C(=O)C=C(CN(C)C(=O)c2ccccc2)C1=O", "property measured": "IC50", "val": "> 10 µM"}
{"compound": "COC1=C(C(C)C)C(=O)C2=C(C[C@@]34CCCC(C)(C)[C@@H]3C[C@]2(O)O4)C1=O", "property measured": "IC50", "val": "0.25 µM"}
{"compound": "COC1=C(C(C)C)C(=O)C=C(Cn2cncn2)C1=O", "property measured": "IC50", "val": "9.8 µM"}
{"compound": "COC1=C(C(C)C)C(=O)C=C(Cc2ccccc2)C1=O", "property measured": "IC50", "val": "> 10 µM"}
{"compound": "COC1=C(C(C)C)C(=O)C=C(COc2cccnc2)C1=O", "property measured": "IC50", "val": "> 10 µM"}
{"compound": "COC1=C(C(C)C)C(=O)C=C(COC(C)C)C1=O", "property measured": "IC50", "val": "> 10 µM"}
{"compound": "COC1=C(C(C)C)C(=O)C=C(CN2CCCC2=O)C1=O", "property measured": "IC50", "val": "> 10 µM"}
{"compound": "COC1=C(C(C)C)C(=O)C=C(Cn2cnc([N+](=O)[O-])c2)C1=O", "property measured": "IC50", "val": "> 10 µM"}
{"compound": "COC1=C(C(C)C)C(=O)C=C(CC2CCCCC2)C1=O", "property measured": "IC50", "val": "> 10 µM"}

Where do these numbers come from? They come from ChEMBL document CHEMBL3596096.
